Biological target: T1, his-tagged murine TIGIT (Acro Biosystems #TIT-M52E6) (murine, UniProt P86176 29-148, limits assumed)
T1 construct: Bought protein; also called mouse his-tagged TIGIT; not shown: his tag
T1 sequence (looked up): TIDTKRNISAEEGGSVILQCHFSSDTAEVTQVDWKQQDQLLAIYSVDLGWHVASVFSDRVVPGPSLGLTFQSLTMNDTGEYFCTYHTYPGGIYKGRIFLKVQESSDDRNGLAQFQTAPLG
Assay: SPR (Carterra LSA), scFv-Fc captured, His-TIGIT analyte; repeat

- binder: "43586p1.2.F9 (scFv, V domains shown) VH: EVQLLESGGGLVQPGGSLRLSCAASGFTFDDYVMSWVRQAPGKGLEWVSLINWNGDKTYYADSVKGRFTISRDNSKNTLYLQMNSLRAEDTAIYYCAKHWIVFQYGMDVWGRGTTVTVSS VL: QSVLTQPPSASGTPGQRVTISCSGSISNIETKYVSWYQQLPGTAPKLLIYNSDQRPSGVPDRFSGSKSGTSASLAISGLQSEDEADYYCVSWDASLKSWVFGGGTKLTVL"
  Kd, nM: 2.1
- binder: "43586p1.2.E4 (scFv, V domains shown) VH: EVQLLESGGGLVQPGGSLRLSCAASGFTFSDYLMTWVRQAPGKGLEWVSTITWDGDRTYYADSVKGRFTISRDNSKNTLYLQMNSLRAEDTAVYYCAKHWTVFQYGMDVWGQGTTVTVSS VL: QSVLTQPPSASGTPGQRVTISCSGTISNIEIKYVSWYQQLPGTAPKLLIYGNHQRPSGVPDRFSGSKSGTSASLAISGLQSEDEADYYCSSWENDLKSWVFGGGTKLTVL"
  Kd, nM: 18

Hello, the source for this data is patent US20230265187A1, in case you need it.
